System: rat cortical neurons
Assay: Neurite outgrowth assay
Format: cell-based
Parameters: key: A: Statistically significant mean increase as a percent of DMSO control at 10 μM or less.; B: No statistically significant mean increase as a percent of DMSO control at 10 μM or less
Conditions: 72 h, 10 μM or less, vs DMSO control
Text: Neurite Outgrowth Assay. Changes in the pattern of neurite outgrowth have been implicated in psychiatric and neurodegenerative disorders as well as traumatic injuries. […] Female Wistar rats of 17 days gestation were killed by cervical dislocation and the fetuses were removed from the uterus. […] Viable cells were counted in a Neubauer cytometer using the trypan blue exclusion test (Sigma). […]
observable: Increase in Neurite Number

Fc1ccc(Oc2ccc3c4c([nH]c3c2)CCNCC4)cc1	A
CN1CCc2c(n(C)c3cc(OCc4ccccc4)ccc23)CC1	B
CN1CCc2[nH]c3c(Br)ccc(OCc4ccccc4)c3c2CC1	B
CN1CCc2[nH]c3cccc(OCc4ccccc4)c3c2CC1	A
CN1CCc2c(n(C)c3cc(Oc4ccccc4)ccc23)CC1	B
Cn1c2c(c3c(OCc4ccccc4)cccc31)CCNCC2	B
CN1CCc2[nH]c3cc(Oc4ccc(F)cc4)ccc3c2CC1	B
CN1CCc2[nH]c3ccc(OCc4ccccc4)cc3c2CC1	A
CN1CCc2c(n(C)c3cccc(Oc4ccc(F)cc4)c23)CC1	B
CN1CCc2[nH]c3c(OCc4ccccc4)cccc3c2CC1	A
